testDetails: Measurement of optical properties of the agents (absorbance and fluorescence emission)
Format: physicochemical
assayConditions: in DMSO; compounds lacking nerve binding
measuredMetric: Abs (maximal absorbance wavelength) (nm)

smi=CC1(C)OC(=C(C#N)C#N)C(C#N)=C1/C=C/c1ccc(N)cc1 resultnumber=574
smi=CC1(C)OC(=O)C(C#N)=C1/C=C/c1ccc(N(CCO)CCO)cc1 resultnumber=505
smi=CC1(C)OC(=O)C(C#N)=C1/C=C/c1ccc(NCCO)cc1 resultnumber=494
smi=CC1(C)OC(=C(C#N)C#N)C(C#N)=C1/C=C/c1ccc(N(CCO)CCO)cc1 resultnumber=596
smi=CC1(C)OC(=C(C#N)C#N)C(C#N)=C1/C=C/c1ccc(NCCO)cc1 resultnumber=590
smi=CC1(C)OC(=O)C(C#N)=C1/C=C/c1ccc(N)cc1 resultnumber=480
